Listed here: items and their measured inhibition.
- MEASUREMENT_TARGET: Solute carrier family 2, facilitated glucose transporter member 1 (Homo sapiens)
- ASSAY_METHOD_TEXT: ST_JUDE_LEISH: Cytotoxicity at 2uM final concentration against transgenic Leishmania Mexicana promastigotes LmGLUT1 that are glucose transport deficient and complemented with the human glucose transporter GLUT1. Activity is measured by DNA content using SYBR green in vitro
- Assay type: functional
// return numeric value only (unit: %, not printed)

Please review the entries below; each comes with its answer.
[[record]]
compound = "Cc1cccc2nc(-c3ccc(-c4ccc(CNCc5ccc(CN)cc5)cc4)cc3)[nH]c12"
reported_endpoint = "inhibition"
numeric_value = 7.89

[[record]]
compound = "Cc1ccc(NC(=O)c2ccc(CN3CCCN(CCC(C)C)CC3)cc2)cc1F"
reported_endpoint = "inhibition"
numeric_value = 7.11

[[record]]
compound = "CCC(CC)NCc1c(O)ccc2c(CNC(CC)CC)c(O)ccc12"
reported_endpoint = "inhibition"
numeric_value = -1.88

[[record]]
compound = "Nc1nc(Cc2ccc(Cl)cc2)nc(Cc2ccc(Cl)cc2)n1"
reported_endpoint = "inhibition"
numeric_value = -3.43

[[record]]
compound = "O=C(NCC(=O)N1CCC[C@H]1C(=O)O)[C@@H](Cc1ccccc1)NC(=O)[C@@H]1CCCN1C(=O)CCCc1ccc(O)cc1"
reported_endpoint = "inhibition"
numeric_value = -2.68


Now consider a different compound.
Value lookup for inhibition; key = `O=C(CCCCCNC(=O)c1ccc(O)c(-c2ccc(Cl)c(Cl)c2)c1)NC1CCCCCC1` 4.53

###

- MEASUREMENT_TARGET: Glucose transporter (Leishmania mexicana)
- ASSAY_METHOD_TEXT: ST_JUDE_LEISH: Cytotoxicity at 2uM final concentration against transgenic Leishmania Mexicana promastigotes LmGT2 that are glucose transport deficient and complemented with the L. Mexicana glucose transporter 2. Activity is measured by DNA content using SYBR green in vitro
- Format: functional
REPORTED_ENDPOINT: inhibition (%)
// return numeric value only (unit: %, not printed)

Solved entries (count: 2):
[[record]]
compound = "CCCc1cc(C(=O)N[C@@H](Cc2ccccc2)[C@H](O)CNC(C)(C)c2cccc(OC)c2)c(F)c(N2CCCC2=O)c1"
measurement_target = "Glucose transporter (Leishmania mexicana)"
reported_endpoint = "inhibition"
numeric_value = 9.99

[[record]]
compound = "Cc1cccc(NC(=O)c2ccc(C(=O)NC3CCN(CC4CCCCC4)CC3)cc2)c1"
measurement_target = "Glucose transporter (Leishmania mexicana)"
reported_endpoint = "inhibition"
numeric_value = 4.8


Please find the next compound below.
Recorded inhibition for `COc1cccc(C(=O)NCc2nnc(S)n2-c2ccc(Cl)c(Cl)c2)c1` , please? -0.3

###

- MEASUREMENT_TARGET: Solute carrier family 2, facilitated glucose transporter member 1 (Homo sapiens) (UniProt P11166)
- Sequence (P11166 whole entry): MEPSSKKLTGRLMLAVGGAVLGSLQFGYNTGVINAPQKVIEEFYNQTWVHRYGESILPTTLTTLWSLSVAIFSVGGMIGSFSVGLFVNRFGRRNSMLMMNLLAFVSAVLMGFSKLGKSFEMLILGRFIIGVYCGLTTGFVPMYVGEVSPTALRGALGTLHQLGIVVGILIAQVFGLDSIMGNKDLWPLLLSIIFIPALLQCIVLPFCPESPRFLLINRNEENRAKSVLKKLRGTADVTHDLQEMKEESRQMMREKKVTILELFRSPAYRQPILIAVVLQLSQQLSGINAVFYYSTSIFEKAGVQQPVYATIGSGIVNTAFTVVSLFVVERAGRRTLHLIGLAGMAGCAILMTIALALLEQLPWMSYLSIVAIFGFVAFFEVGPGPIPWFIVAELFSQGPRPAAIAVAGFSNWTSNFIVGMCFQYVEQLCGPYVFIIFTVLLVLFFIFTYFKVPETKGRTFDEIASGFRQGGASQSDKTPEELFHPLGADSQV
- ASSAY_METHOD_TEXT: ST_JUDE_LEISH: Cytotoxicity at 2uM final concentration against transgenic Leishmania Mexicana promastigotes LmGLUT1 that are glucose transport deficient and complemented with the human glucose transporter GLUT1. Activity is measured by DNA content using SYBR green in vitro
- Format: functional
inhibition values by entry
Only the number, expressed in %, is required.

[[record]]
compound = "COC(=O)C(Cc1ccccc1)NC(=O)NC1CCN(c2ccnc(Nc3ccc(F)cc3)n2)C1 (stereo not given)"
numeric_value = 1.44

[[record]]
compound = "CC(C)CNCc1ccc(OCc2cccc(COc3ccc(CNCC(C)C)cc3I)c2)c(I)c1"
numeric_value = 2.2

[[record]]
compound = "COc1ccccc1CNc1ncc(-c2ccsc2)c(-c2nccs2)n1"
numeric_value = 0.14


Switching to the query record.
What does the data say about its inhibition? Entry: `NC(=S)Cc1ccc2c(c1)OCO2` -0.08
